read-out: CD40, CD40 (gene 958); assay: BSK_LPS_CD40: BioMAP Diversity Plus: LPS Assay for CD40 Biomarker Activity (AID 2283076); conditions: primary human HUVEC with PBMC; actives raise or lower the signal
Calls of active or inactive are those of the source. The calls were made as follows: active = hit-call score of the fitted dose curve at least 0.9, where 1 is the maximum; inactive = score below 0.9.

- MOLECULE: "CC[N+](CC)(CC(=O)Nc1c(C)cccc1C)Cc1ccccc1 (tested in a mixture with another compound)"
  outcome: "inactive"
- MOLECULE: "CC[N+](CC)(CC(=O)Nc1c(C)cccc1C)Cc1ccccc1"
  outcome: "inactive"
- MOLECULE: "CN(C)Cc1cc(C(C)(C)C)c(O)c(C(C)(C)C)c1"
  outcome: "inactive"

----------
test: BSK_CASM3C_SRB: Viability Assessment in the BioMAP Diversity Plus: CASM3C Assay (AID 2283050); settings: primary human coronary artery smooth muscle cells;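 also: total protein by SRB staining as cytotoxicity measure in parallel cultures; cells exposed to compound for 24 h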
Active and inactive are the calls of the source. The calls were made as follows: active = hit-call score of the fitted dose curve at least 0.9, where 1 is the maximum; inactive = score below 0.9.
Returns: one label drawn from Yes for active, No for inactive

- MOLECULE: "CCCCCCCCCCC1CO1 (stereo unspecified)"
  LABEL: "Yes"
- MOLECULE: "CC[N+](CC)(CC(=O)Nc1c(C)cccc1C)Cc1ccccc1"
  LABEL: "No"
- MOLECULE: "CN(C)Cc1cc(C(C)(C)C)c(O)c(C(C)(C)C)c1"
  LABEL: "No"

Problem: In this assay, the call recorded for `Cc1cc(-n2nc3ccc(Cl)cc3n2)c(O)c(C(C)(C)C)c1` was what?
Result: No

Problem: In this assay, the call recorded for `CCC[Si](OC(C)=O)(OC(C)=O)OC(C)=O` was what?
Result: No

Problem: In this assay, the call recorded for CCCCCCCCCC/C=C/C1CC(=O)OC1=O (stereo unspecified) was what?
Result: No

----------
experiment: BSK_LPS_PGE2: BioMAP Diversity Plus: LPS Assay for Prostaglandin E2 (PGE2) Biomarker Activity (AID 2283082); settings: primary human HUVEC with PBMC; actives raise or lower the signal
The source made the active and inactive calls. The calls were made as follows: active = hit-call score of the fitted dose curve at least 0.9, where 1 is the maximum; inactive = score below 0.9.
Returns: one label drawn from active, inactive

These recorded examples may help you get a feel for the data.
- COMPOUND: "Sc1nc2ccccc2s1"
  LABEL: "inactive"
- COMPOUND: "CCCCCCCCCCCCCCCCCC[N+](C)(C)C"
  LABEL: "inactive"
- COMPOUND: "COc1ccc(C(=O)c2ccccc2O)c(O)c1"
  LABEL: "active"

Problem: In this assay, the call recorded for `CC[N+](CC)(CC(=O)Nc1c(C)cccc1C)Cc1ccccc1` was what?
Result: inactive

Problem: In this assay, the call recorded for CC(C)C1OCCN1CCOC(=O)NCCCCCCNC(=O)OCCN1CCOC1C(C)C (centres undefined) was what?
Result: inactive

----------
target: Cellular tumor antigen p53 (Homo sapiens) (UniProt P04637); assay: TOX21_p53_BLA_p5_ratio: Tox21 HCT-116 p53 Agonism Beta-lactamase Assay, Ratio, Phase 5 (AID 2283599)
Sequence (P04637 whole entry, looked up): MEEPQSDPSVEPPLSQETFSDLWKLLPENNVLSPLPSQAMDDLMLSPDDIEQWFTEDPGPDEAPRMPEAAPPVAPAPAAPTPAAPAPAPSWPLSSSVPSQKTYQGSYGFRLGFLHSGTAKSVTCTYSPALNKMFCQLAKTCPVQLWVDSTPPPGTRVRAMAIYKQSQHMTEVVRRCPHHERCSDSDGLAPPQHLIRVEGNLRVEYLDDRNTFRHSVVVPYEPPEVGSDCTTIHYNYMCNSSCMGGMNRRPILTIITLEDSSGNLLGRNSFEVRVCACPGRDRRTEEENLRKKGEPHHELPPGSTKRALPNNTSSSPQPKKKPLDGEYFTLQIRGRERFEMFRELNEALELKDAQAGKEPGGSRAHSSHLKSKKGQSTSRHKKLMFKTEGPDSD
Inconclusive results are not listed. Calls of active or inactive are those of the source. How the source made its calls: active means hit-call score of the fitted dose curve at least 0.9, where 1 is the maximum; inconclusive means response in the unintended direction; inactive means score below 0.9.
Returns: one label drawn from active, inactive

- COMPOUND: "Cc1nc2sccn2c(=O)c1CCN1CCC(=C(c2ccc(F)cc2)c2ccc(F)cc2)CC1"
  LABEL: "inactive"
- COMPOUND: "Nc1ccc(F)cc1F"
  LABEL: "inactive"
- COMPOUND: "CC(=O)OC[C@H]1O[C@@H](n2ncc(=O)[nH]c2=O)[C@H](OC(C)=O)[C@@H]1OC(C)=O"
  LABEL: "active"

Problem: In this assay, the call recorded for `Cc1ccc(O)c(O)c1` was what?
Result: active

Problem: In this assay, the call recorded for `NCCNCCO` was what?
Result: inactive

Problem: In this assay, the call recorded for `CC(=O)CCc1ccccc1` was what?
Result: inactive
